System: MDA-MB-231 cells
Experiment: Cytotoxicity of MTX-bound peptide, WST-1 assay
Format: cell-based
Details: Homo sapiens, 48 hours, MTX bound to N-terminus of one monomer of the dimer, MTX column = MTX alone, read-out: IC50 of MTX-bound peptide
ENDPOINT LABEL: pIC50
The scale used: pIC50 is minus the common logarithm of the concentration in molar units.

Lab note: measured pIC50 of CN(Cc1cnc2nc(N)nc(N)c2n1)c1ccc(C(=O)N[C@@H](CCC(=O)O)C(=O)O)cc1 [MTX, methotrexate] was 6.01

====

Tested on: NIH-3T3
Experiment: IC50 of MTX in cell line NIH-3T3
Type: cell-based
Conditions: Mus musculus, NIH3T3
ENDPOINT LABEL: IC50 (nM)
Entry rule: numbers only, all in nM.

Measured IC50 for this entry CN(Cc1cnc2nc(N)nc(N)c2n1)c1ccc(C(=O)N[C@@H](CCC(=O)O)C(=O)O)cc1 [MTX, methotrexate] on NIH-3T3: 37

====

Tested on: MDA-MB-231
Experiment: IC50 of MTX in cell line MDA-MB-231
Assay type: cell-based
Conditions: Homo sapiens
ENDPOINT LABEL: IC50

Lab note: measured IC50 of CN(Cc1cnc2nc(N)nc(N)c2n1)c1ccc(C(=O)N[C@@H](CCC(=O)O)C(=O)O)cc1 [MTX, methotrexate] was 970 nM
